- test target: Bcr-abl T315I (Ba/F3.p210^T315I cells) (Homo sapiens, UniProt P00519, T315I, cells depend on it)
- assay method text: Proliferation assay (MTT), T315I mutant Bcr-abl expressing Ba/F3 cells
- test context: 48 h, drug concentrations 0.005-10 μM
pIC50: −log10 of the molar value.
pIC50 overview

{"compound": "COC(=O)c1ccc2c(Nc3ccc(OC(F)(F)F)cc3)ncnc2c1", "pIC50": 5.72}
{"compound": "OCc1ccc2c(Nc3ccc(OC(F)(F)F)cc3)ncnc2c1", "pIC50": "< 5.00"}
{"compound": "O=C(c1ccc2c(Nc3ccc(OC(F)(F)F)cc3)ncnc2c1)N1CCCC1CO (stereo not drawn)", "pIC50": "< 5.00"}
{"compound": "FC(F)(F)Oc1ccc(Nc2ncnc(NCCN3CCOCC3)c2Br)cc1", "pIC50": "< 5.00"}
{"compound": "O=C(NCCN1CCOCC1)c1cc2c(Nc3ccc(OC(F)(F)F)cc3)ncnc2s1 [drawing 332]", "pIC50": "< 5.00"}
{"compound": "FC(F)(F)Oc1ccc(Nc2ncnc3c2ccn3CCN2CCOCC2)cc1", "pIC50": 5.37}

----------
pIC50 overview
- test target: Bcr-abl (Ba/F3.p210 cells) (Homo sapiens, UniProt P00519)
- assay method text: Proliferation assay (MTT), wild type Bcr-abl expressing Ba/F3 cells
- test context: 48 h, drug concentrations 0.005-10 μM
- Description: Wild type Bcr-abl expressing 32D (32D.p210) and Ba/F3 (Ba/F3.p210) cells, and mutant Bcr-abl expressing cell lines Ba/F3.p210^G250E, Ba/F3.p210^E255V, Ba/F3.p210^T315I, Ba/F3.p210^F317L and Ba/F3.p210^M351T, as well as Ba/F3 cells transformed with Flt-3-ITD kinase. Additional assays included Ba/F3 cells expressing the fusion protein kinases TEL-PDGFRβ, TEL-JAK1, NPM-ALK, TEL-cKit, Tel-Bmx, Tel-FGR3, Tel-Lck and Ba/F3.TPR-met cells. […]
pIC50: −log10 of the molar value.

{"molecule": "Cn1c(C(=O)NC(=N)N)cc2c(Nc3ccc(OC(F)(F)F)cc3)ncnc21", "value modifier": "<", "pIC50": 5.00}
{"molecule": "Cn1ncc2c(Nc3ccc(OC(F)(F)F)cc3)ncnc21", "value modifier": "<", "pIC50": 5.00}
{"molecule": "CC(C)(C)S(=O)(=O)NC(=O)c1ccc2c(Nc3ccc(OC(F)(F)F)cc3)ncnc2c1", "value modifier": "<", "pIC50": 5.00}
{"molecule": "Cc1ccc(S(=O)(=O)NC(=O)c2ccc3c(Nc4ccc(OC(F)(F)F)cc4)ncnc3c2)cc1", "value modifier": "<", "pIC50": 5.00}
{"molecule": "FC(F)(F)Oc1ccc(Nc2ncnc3[nH]ccc23)cc1", "value modifier": "<", "pIC50": 5.00}
{"molecule": "Cn1c(CO)cc2c(Nc3ccc(OC(F)(F)F)cc3)ncnc21", "value modifier": "=", "pIC50": 6.61}
{"molecule": "O=C(c1ccc2c(Nc3ccc(OC(F)(F)F)cc3)ncnc2c1)N1CCC(O)C1 (centres unmarked)", "value modifier": "=", "pIC50": 5.93}
{"molecule": "Cn1c(C(=O)N2CCC(C(N)=O)CC2)cc2c(Nc3ccc(OC(F)(F)F)cc3)ncnc21", "value modifier": "=", "pIC50": 6.09}
{"molecule": "Cn1c(C(=O)N2CCCC(C(N)=O)C2)cc2c(Nc3ccc(OC(F)(F)F)cc3)ncnc21 (centres unmarked)", "value modifier": "=", "pIC50": 5.70}
{"molecule": "CCN1CCCC1NC(=O)c1cc2c(Nc3ccc(OC(F)(F)F)cc3)ncnc2n1C (centres unmarked)", "value modifier": "=", "pIC50": 5.53}
{"molecule": "COCCCNC(=O)c1ccc2c(Nc3ccc(OC(F)(F)F)cc3)ncnc2c1", "value modifier": "=", "pIC50": 5.39}
{"molecule": "Cn1ccc2c(Nc3ccc(OC(F)(F)F)cc3)ncnc21", "value modifier": "=", "pIC50": 5.16}
{"molecule": "CNCCN(C)C(=O)c1ccc2c(Nc3ccc(OC(F)(F)F)cc3)ncnc2c1", "value modifier": "=", "pIC50": 5.22}
{"molecule": "OCc1ccc2c(Nc3ccc(OC(F)(F)F)cc3)ncnc2c1", "value modifier": "=", "pIC50": 6.29}
